Quick list: viability at 24 h, 100 µM per entry.
experiment: Cytotoxicity against mouse RAW264.7 cells assessed as cell viability at 100 uM after 24 hrs by MTT assay; assay type: cell-based; conditions: read-out: Activity
The reply should be a number in %, with the unit left off.

In: Returns the measured viability at 24 h, 100 µM for the input compound. Input: C=C1CC[C@H]2[C@@](C)(CCC(=O)[C@@]2(C)CO)[C@@H]1/C=C/C1=CCOC1=O
Out: 104

In: Returns the measured viability at 24 h, 100 µM for the input compound. Input: C=C1CC[C@@H]2[C@](C)(CO)[C@H](O)CC[C@@]2(C)[C@@H]1C/C=C(/C(=O)O)[C@@H](O)CO
Out: 104

In: Returns the measured viability at 24 h, 100 µM for the input compound. Input: C[C@@]12CCC(=O)[C@@](C)(CO)[C@H]1CC[C@@]1(CO1)[C@H]2CCC1=CCOC1=O
Out: 63.1
